- ASSAY SYSTEM: StmPr1 (Stenotrophomonas maltophilia)
- Construct: StmPr1 36 kDa (self-digested from 47 kDa, C-terminal extension cleaved)
- Sequence (Q93IQ4 entry or part of it): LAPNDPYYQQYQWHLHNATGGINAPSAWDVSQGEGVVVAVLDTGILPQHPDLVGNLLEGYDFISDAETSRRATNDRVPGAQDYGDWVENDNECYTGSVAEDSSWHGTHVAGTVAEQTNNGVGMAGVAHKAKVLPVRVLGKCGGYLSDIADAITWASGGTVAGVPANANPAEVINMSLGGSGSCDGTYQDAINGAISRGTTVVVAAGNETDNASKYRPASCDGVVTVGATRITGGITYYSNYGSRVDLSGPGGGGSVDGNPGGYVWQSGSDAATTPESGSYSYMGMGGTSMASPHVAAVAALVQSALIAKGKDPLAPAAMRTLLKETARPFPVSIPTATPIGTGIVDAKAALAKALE
- PROTOCOL NOTES: X-ray crystal structure ([…] Å) plus protease activity assay
- Format: biochemical
- CONDITION LABEL: read-out: IC50
METRIC: pIC50
In simple prose, pIC50 is minus the logarithm base ten of a concentration in moles per litre.

Qu. Item under review: CC(C)C[C@H](NC(=O)[C@H](Cc1ccccc1)NC(=O)c1cnccn1)B(O)O . Reported pIC50?
Ans. 5.71
